# Assay system: Solute carrier family 2, facilitated glucose transporter member 1 (Homo sapiens) (UniProt P11166)
# Sequence (P11166 whole entry): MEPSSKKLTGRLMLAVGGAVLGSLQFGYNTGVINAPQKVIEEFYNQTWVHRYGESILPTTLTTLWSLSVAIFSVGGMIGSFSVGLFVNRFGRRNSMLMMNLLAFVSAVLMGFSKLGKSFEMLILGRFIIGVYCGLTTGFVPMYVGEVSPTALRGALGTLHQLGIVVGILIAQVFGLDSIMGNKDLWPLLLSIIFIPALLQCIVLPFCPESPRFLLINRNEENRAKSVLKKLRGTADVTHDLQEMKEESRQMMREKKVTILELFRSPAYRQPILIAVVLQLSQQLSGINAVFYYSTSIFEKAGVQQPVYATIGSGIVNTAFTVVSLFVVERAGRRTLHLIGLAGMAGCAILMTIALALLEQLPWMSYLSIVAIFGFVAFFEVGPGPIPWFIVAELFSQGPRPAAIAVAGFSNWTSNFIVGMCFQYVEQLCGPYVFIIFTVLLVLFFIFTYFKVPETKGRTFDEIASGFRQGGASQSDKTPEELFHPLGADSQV
# Method: ST_JUDE_LEISH: Cytotoxicity at 2uM final concentration against transgenic Leishmania Mexicana promastigotes LmGLUT1 that are glucose transport deficient and complemented with the human glucose transporter GLUT1. Activity is measured by DNA content using SYBR green in vitro
# Assay type: functional
Endpoint label: inhibition (%)
Response body: numeric value in %, unit text excluded.

Consider the reported inhibition for these molecules:
{"Test smiles": "Cc1cc(N2CCCC2)nc(Nc2ccc(NC(=O)c3cccc(F)c3)cc2)n1", "Measurement units": "%", "Measured value": 33.5}
{"Test smiles": "CNCc1cccc2nc(-c3csc(Cc4cc(Cl)ccc4OCC(C)C)n3)[nH]c12", "Measurement units": "%", "Measured value": -0.53}
{"Test smiles": "O=C(/C=C/c1cccc(C(F)(F)F)c1)NCCCCCN1CCN(C(=O)Nc2ccc(Cl)c(Cl)c2)CC1", "Measurement units": "%", "Measured value": 2.21}
{"Test smiles": "CC(C)CN1CCCN(Cc2cccc(NC(=O)c3ccc(-c4ccccc4)cc3)c2)CC1", "Measurement units": "%", "Measured value": 0.53}
{"Test smiles": "CC(C)CNCc1cccc(-c2ccc(CN(CCCN3CCN(C)CC3)C(=O)/C=C/c3ccccc3)cc2)c1", "Measurement units": "%", "Measured value": 2.92}
{"Test smiles": "Cc1cc(N[C@@H](CC(C)C)C(=O)NCCCOC(C)C)nc(NCCc2ccc(F)cc2)n1", "Measurement units": "%", "Measured value": 2.71}
{"Test smiles": "COc1ccc(NC(=O)Nc2ccc(-c3ccccc3)cc2Cl)cc1N1CCN(C)CC1", "Measurement units": "%", "Measured value": 12}
{"Test smiles": "CN(C)CCN(C)Cc1cccc(-c2ccc3c(Nc4ccc(F)cc4Cl)ccnc3c2)c1", "Measurement units": "%", "Measured value": 1.88}

Let's switch to this molecule now.
Recorded inhibition for Cc1cccc(CN2CCCN(Cc3cccc(C(=O)Nc4ccc(C(C)(C)C)cc4)c3)CC2)c1 , please?
3.43

Cited source for all entries: ChEMBL document CHEMBL3433997
